EXPERIMENTAL_TARGET: mouse RORγ (Mus musculus, UniProt P51450)
Construct: mouse RORγ, from Ile251 to Lys516; expressed in transfected cells; host or cells: CHO cells (Chinese hamster ovary), transient co-transfection with pG5-Luc
EXPERIMENT_DESCRIPTION: In vitro assay of inhibitory effect against RORγ transcriptional activity (GAL4-mRORγ LBD luciferase reporter gene assay in CHO cells)
Format: cell-based
TEST_SETTINGS: GAL4-mRORγ LBD luciferase reporter, CHO cells; read-out: LUC EC50 mRORγ
MEASURED_ENDPOINT: EC50

| SMILES | MEASURED_ENDPOINT | TEST_VALUE |
| --- | --- | --- |
| CC(C)C1=CN([C@@H](C)CC(=O)O)C(=O)N[C@@]1(C)c1ccc(CCC(C)(C)C)c(Cl)c1 | EC50 | 16 nM |
| CC(C)C1=CN(CCC(=O)O)C(=O)N[C@@]1(C)c1ccc(C=C2CCC2)c(Cl)c1 | EC50 | 917 nM |
| CC(C)(C)CCc1ccc([C@]2(C)NC(=O)N(C34CC(C(=O)O)(C3)C4)C=C2C2CC(F)(F)C2)cc1Cl | EC50 | 19 nM |

// switching to the query compound
q: Which measured EC50 value corresponds to "CC(C)C1=CN(CCC(=O)O)C(=O)N[C@@]1(C)c1ccc(CC2CC(F)(F)C2)c(Cl)c1" ?
a: 187 nM

---

EXPERIMENTAL_TARGET: human RORγ (Homo sapiens, UniProt P51449)
Construct: human RORγ, from Ser253 to Lys518; expressed in transfected cells; host or cells: CHO cells (Chinese hamster ovary), transient co-transfection with pG5-Luc
Sequence (P51449 253-518): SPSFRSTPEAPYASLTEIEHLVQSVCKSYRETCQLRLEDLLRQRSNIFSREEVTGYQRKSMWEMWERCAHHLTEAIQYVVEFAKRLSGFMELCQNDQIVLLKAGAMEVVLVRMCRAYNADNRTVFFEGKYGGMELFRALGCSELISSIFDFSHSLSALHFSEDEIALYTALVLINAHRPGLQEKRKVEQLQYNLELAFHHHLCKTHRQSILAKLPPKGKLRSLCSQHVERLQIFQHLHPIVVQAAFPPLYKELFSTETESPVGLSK
EXPERIMENT_DESCRIPTION: In vitro assay of inhibitory effect against RORγ transcriptional activity (GAL4-hRORγ LBD luciferase reporter gene assay in CHO cells)
Type: cell-based
TEST_SETTINGS: GAL4-hRORγ LBD / pG5-Luc in CHO cells, 2 days incubation
pEC50: −log10 of the molar value.
MEASURED_ENDPOINT: pEC50

Here's what some known entries look like.
| SMILES | pEC50 |
| --- | --- |
| CC(C)(C)CCc1ccc([C@@]2(C)NC(=O)N(CCCC(=O)O)C=C2C2CC2)cc1Cl | 5.29 |
| CC(C)C1=CN(CCC(=O)O)C(=O)N[C@]1(C)c1ccc(CCc2ccccc2)c(Cl)c1 | < 5.10 |
| CC(C)C1=CN([C@H]2C[C@H](C(=O)O)C2)C(=O)N[C@]1(C)c1cc(Cl)c(CCC(C)(C)C)cc1F | < 5.49 |

// switching to the query molecule
q: Which measured pEC50 value corresponds to "CC(C)C1=CN(CCC(=O)O)C(=O)N[C@]1(C)c1ccc(C2CCCC2)c(Cl)c1" ?
a: < 5.10

---

EXPERIMENTAL_TARGET: mouse RORγ (Mus musculus, UniProt P51450)
Construct: mouse RORγ, from Ile251 to Lys516; expressed in transfected cells; host or cells: CHO cells (Chinese hamster ovary), transient co-transfection with pG5-Luc
Sequence (P51450 251-516): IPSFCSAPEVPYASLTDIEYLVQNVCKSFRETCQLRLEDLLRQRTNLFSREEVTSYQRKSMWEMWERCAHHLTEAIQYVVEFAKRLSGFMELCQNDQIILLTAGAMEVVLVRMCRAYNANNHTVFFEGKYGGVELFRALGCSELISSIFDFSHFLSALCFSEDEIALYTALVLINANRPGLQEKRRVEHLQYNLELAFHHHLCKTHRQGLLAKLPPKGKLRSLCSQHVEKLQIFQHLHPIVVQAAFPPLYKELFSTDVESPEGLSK
EXPERIMENT_DESCRIPTION: In vitro assay of inhibitory effect against RORγ transcriptional activity (GAL4-mRORγ LBD luciferase reporter gene assay in CHO cells)
Format: cell-based
TEST_SETTINGS: GAL4-mRORγ LBD / pG5-Luc in CHO cells, 2 days incubation
Experimental: In Vitro Assay of Inhibitory Effect Against RORγ Transcriptional Activity Inhibitory effect of a test article on transcriptional activity of RORγ was measured by means of the following reporter gene assay. […] RORγ transcriptional activity was detected as the intracellular luciferase activity using SteadyLite HTS Reporter Gene Assay System (Perkin Elmer). […] After the incubation at room temperature for 10 minutes, luminescence of each well was measured by a microplate reader. […]
MEASURED_ENDPOINT: pEC50
FYI, pEC50 means -log10 of a concentration in mol per litre.

| MOLECULE | pEC50 |
| --- | --- |
| CCC(C)C1=CN(CCCC(=O)O)C(=O)NC1(C)c1ccc(CCC(C)(C)C)c(Cl)c1 (single isomer, unassigned) [Example 34] | 7.68 |
| CC(C)C1=CN(CCCC(=O)O)C(=O)N[C@@]1(C)c1ccc(CCC2CCC2)c(Cl)c1 | 8.00 |
| CC(C)(C)CCc1ccc([C@@]2(C)NC(=O)N(CCCC(=O)O)C=C2C2CCC2)cc1Cl | 5.78 |

q: Which measured pEC50 value corresponds to CC(C)CCc1ccc(C2(C)NC(=O)N(CCCC(=O)O)C=C2C(C)C)cc1Cl (racemic) ?
a: 7.80

q: CC(C)C1=CN(CCC(=O)O)C(=O)NC1(C)c1ccc(C2CCCC(C)(C)C2)c(Cl)c1 (single isomer, unassigned) [Example 166] , same question.
a: 7.54

q: "CCC(CC)Cc1ccc([C@]2(C)NC(=O)N(CCC(=O)O)C=C2C(C)C)cc1Cl" , same question.
a: 7.77
